Tested on: U-251
Assay: NCI tumour cell line growth inhibition, 48 h
Calls of active or inactive are those of the source. Rule as the data show it: active = GI50 up to about 1.1 µM and inactive = higher.
Labels: active, inactive

- molecule: "CC(=O)OC1COC(N2C(=O)C(=O)c3ccccc32)C(OC(C)=O)C1OC(C)=O (centres undefined)"
  classification: "inactive"
- molecule: "CC(C)(C)OC(=O)Nc1cc(-c2ccccc2)co1"
  classification: "inactive"
- molecule: "O=C(OCCNC(=O)N1CC1)OCCNC(=O)N1CC1"
  classification: "inactive"
- molecule: "Cc1ccc(F)c2c(=O)cc(-c3ccccc3)[nH]c12"
  classification: "inactive"
- molecule: "O=C1C=C(Nc2ccc(Br)cc2)c2ccccc2/C1=N/O"
  classification: "inactive"
- molecule: "Nc1sccc1S(=O)(=O)c1ccsc1N"
  classification: "inactive"
- molecule: "Cc1cc(S(=O)(=O)Nc2nc(N)n(-c3ccccn3)n2)c(S)cc1Cl"
  classification: "inactive"
- molecule: "N#CC(C#N)/N=C/c1ccncc1"
  classification: "inactive"
- molecule: "[Se]=P(c1ccccc1)(c1ccccc1)c1ccc(C(c2ccccc2)=P(c2ccccc2)(c2ccccc2)c2ccccc2)cc1"
  classification: "active"
- molecule: "O=C1c2ccccc2C(=O)c2c(NCCNCCO)ccc(O)c21"
  classification: "inactive"
- molecule: "O=C(c1ccccc1)[C@H]1Nc2ccc(Cl)cc2[C@H]2c3ccccc3O[C@H]21"
  classification: "inactive"
- molecule: "CC(=O)NNc1ncc(C(=O)/C=C/c2ccccc2C)s1"
  classification: "inactive"
- molecule: "O=c1/c(=C/c2ccc(Cl)cc2Cl)sc2nc3ccccc3n12"
  classification: "inactive"
- molecule: "CCOc1ccc(N(CC(=O)N2CC(=O)Nc3cc(C)c(C)cc32)C(C)=O)cc1"
  classification: "inactive"

###

As shown below, each of these molecules has a reported GI50 value.
System: NCI-H460
Assay: NCI tumour cell line growth inhibition, 48 h
The source made the active and inactive calls. No stated cut-off is given here; in the data, active = GI50 up to about 1.1 µM and inactive = higher.

- molecule: "COc1ccccc1OCC(=N/NC(=O)c1ccncc1)/N=C/c1ccncc1"
  assay-target: "NCI-H460"
  GI50: "> 100 µM (inactive)"
- molecule: "C/C(N)=N/OCc1nc(C)no1"
  assay-target: "NCI-H460"
  GI50: "> 100 µM (inactive)"
- molecule: "Nc1cccc2c1-c1c(cccc1[N+](=O)[O-])C2=O"
  assay-target: "NCI-H460"
  GI50: "> 100 µM (inactive)"
- molecule: "O=C1N=C(Nc2ccccc2Cl)SC1C(=O)Nc1ccc([N+](=O)[O-])cc1[N+](=O)[O-] (centres undefined)"
  assay-target: "NCI-H460"
  GI50: "> 100 µM (inactive)"
- molecule: "O=c1[nH]c(=S)[nH]cc1CN1CCOCC1"
  assay-target: "NCI-H460"
  GI50: "> 100 µM (inactive)"
- molecule: "Clc1cc(OC2C3CC4CC(C3)CC2C4)nc(Cl)n1 (centres undefined)"
  assay-target: "NCI-H460"
  GI50: "17.7 µM (inactive)"
- molecule: "CCOC(=O)/C(I)=C/c1cc(OC)c(OC)c(OC)c1"
  assay-target: "NCI-H460"
  GI50: "40.6 µM (inactive)"
- molecule: "O=C(c1ccco1)N(C(=O)N1CCN(c2ccccc2)CC1)S(=O)(=O)c1ccccc1"
  assay-target: "NCI-H460"
  GI50: "32.3 µM (inactive)"
- molecule: "CC[N+]1(C)CCC(O)(c2ccccc2)C(C(=O)c2ccccc2)C1 (centres undefined)"
  assay-target: "NCI-H460"
  GI50: "21.7 µM (inactive)"

###

As shown below, each of these compounds has a reported GI50 value.
Test system: BT-549
Test: NCI tumour cell line growth inhibition, 48 h
Active and inactive are the calls of the source. No stated cut-off is given here; in the data, active = GI50 up to about 1.1 µM and inactive = higher.

- compound: "COc1cccc(N2C(=O)C3CC(CC(C)(C)C)c4c([nH]c5ccccc45)C3C2=O)c1 (stereo unspecified)"
  assay-target: "BT-549"
  GI50: "9.51 µM (inactive)"
- compound: "COC(=O)CCC(=O)NC1=C(Nc2ccccc2)C(=O)c2ccccc2C1=O"
  assay-target: "BT-549"
  GI50: "10.6 µM (inactive)"
- compound: "CCN(CC)CCNc1ccc2ncn3c4c(OC)ccc(O)c4c(=O)c1c23"
  assay-target: "BT-549"
  GI50: "37.3 µM (inactive)"
- compound: "CCN(CC)C(=O)Cn1c2c(c3ccccc31)CCCC2"
  assay-target: "BT-549"
  GI50: "> 100 µM (inactive)"
- compound: "CCOC(=O)CCC(NC(=O)N1CCN(c2c(C)nc(C)nc2O)CC1)C(=O)OCC (stereo unspecified)"
  assay-target: "BT-549"
  GI50: "> 100 µM (inactive)"
- compound: "O=C(O)[C@@H]1NC[C@H]2C(Br)=NO[C@H]21"
  assay-target: "BT-549"
  GI50: "> 100 µM (inactive)"
- compound: "CC(C)(C)OC(=O)N(O)CCCn1cnc2c(N)ncnc21"
  assay-target: "BT-549"
  GI50: "> 100 µM (inactive)"
- compound: "O=C1C(F)=CC(COC(c2ccccc2)(c2ccccc2)c2ccccc2)OC1n1cc(F)c(=O)[nH]c1=O (stereo unspecified)"
  assay-target: "BT-549"
  GI50: "1.71 µM (inactive)"
- compound: "O=C1CC(C(O)(C(F)(F)F)C(F)(F)Cl)CCC1C(O)(C(F)(F)F)C(F)(F)Cl (stereo unspecified)"
  assay-target: "BT-549"
  GI50: "> 10 µM (inactive)"
- compound: "CN(N=O)C(=O)N[C@H]1C(O)O[C@H](CO)[C@@H](O)[C@@H]1O (stereo partly specified)"
  assay-target: "BT-549"
  GI50: "> 750 µM (inactive)"
- compound: "C1COCCOP2(N3CC3)=NP(N3CC3)(=NP(N3CC3)(N3CC3)=N2)OCCOCCO1 (stereo unspecified)"
  assay-target: "BT-549"
  GI50: "> 100 µM (inactive)"
- compound: "O=C(O)c1ccc(CNCc2ccccc2)cc1"
  assay-target: "BT-549"
  GI50: "> 100 µM (inactive)"
- compound: "C/C=C1\\C(=O)O[C@H]2C/C(C)=C/CC/C(C)=C/CC[C@@]3(C)O[C@@H]3C[C@@H]12"
  assay-target: "BT-549"
  GI50: "69.5 µM (inactive)"
- compound: "CCNCC(O)COc1ccc2c(c1)[n+]([O-])nc(N)[n+]2[O-] (stereo unspecified)"
  assay-target: "BT-549"
  GI50: "> 100 µM (inactive)"
- compound: "C1=N\\CCNCC/N=C/c2ccccc2OCc2cccc(n2)COc2ccccc2/1"
  assay-target: "BT-549"
  GI50: "12 µM (inactive)"
- compound: "C#C[C@]1(O)CC[C@H]2[C@@H]3CCC4=C/C(=N/CCOC(=O)c5cccc6c(=O)c7ccccc7[nH]c56)CC[C@@H]4[C@H]3CC[C@@]21C"
  assay-target: "BT-549"
  GI50: "32.3 µM (inactive)"

###

Test system: U-251
Assay: NCI tumour cell line growth inhibition, 48 h
Calls of active or inactive are those of the source. Rule as the data show it: active = GI50 up to about 1.1 µM and inactive = higher.
Labels: y = active, n = inactive

- compound: "COC(=O)[C@@]1(C)C(=O)CC[C@@H]1C=O"
  classification: "n"
- compound: "COc1ccc(CC#C/C=C/C(=O)NCC(C)C)cc1"
  classification: "n"
- compound: "CN(N=O)C(=O)N[C@H]1C(O)O[C@H](CO)[C@@H](O)[C@@H]1O (some centres undefined)"
  classification: "n"
- compound: "COC(=O)C1(SC)C2CCC3C2CCC31 (centres undefined)"
  classification: "n"
- compound: "CC(=O)NC(CCC(=O)C=[N+]=[N-])C(=O)O (centres undefined)"
  classification: "n"
- compound: "COc1cnc2cc(C(=O)O)c3c([N+](=O)[O-])cccc3c2c1"
  classification: "n"
- compound: "O=C1C2=C(c3ccccc31)C(c1ccc(Cl)cc1)N1C(=O)CCSC1=N2 (centres undefined)"
  classification: "n"
- compound: "COC(=O)C1C(O)C(C)C(O)C(C)C=C(C)C2=C3C(=C(C)C(=O)c4c(O)c(c(C)c(OC(C)=O)c43)NC(=O)C(C)=C/C=C\\C(C)C(O)C(C)C1O)OCO2 (centres undefined)"
  classification: "n"
- compound: "CC(=O)N[C@@H](Cc1ccc(O)cn1)C(=O)NCc1cccc(Cl)c1"
  classification: "n"
- compound: "CC1[C@@]2(O[C@@H]3C=C4C5CCC6Cc7nc8c(nc7C[C@@]6(C)C5C[C@H](O)[C@@]4(C)[C@]13O)CC1CCc3c(cc4c5c3C(O)C[C@H]5[C@@H](C)C3(O4)OC(C)(C)CC3O)[C@]1(C)C8)O[C@@](C)(CO)C[C@@H]2O (some centres undefined)"
  classification: "y"
- compound: "O[C@@H]1C=C[C@]23CCN(Cc4cc5c(cc42)OCO5)[C@@H]3C1"
  classification: "n"
- compound: "Cc1ccc(S(=O)(=O)N2CCN(S(=O)(=O)c3ccc(C)cc3)CCN(S(=O)(=O)c3ccc(C)cc3)Cc3cc(Br)c(Br)cc3CN(S(=O)(=O)c3ccc(C)cc3)CC2)cc1"
  classification: "n"
- compound: "O=C1OS2(OCc3cccc4cccc2c34)c2ccccc21 (centres undefined)"
  classification: "n"
- compound: "O=C(/N=C(/Nc1ccccc1)SCCS/C(=N\\C(=O)c1ccccc1)Nc1ccccc1)c1ccccc1"
  classification: "n"
